experiment: in vivo; parameters: species or system nude mice; details: nude, mouse, total radioactivity, Tumor-to-tissue ratio Lg. Intestine
*1 amine or outer side, *2 acyl side, *3 side chain or, on linkers, in order; H or OH if unused. Where a SMILES comes first, the peptide text is derived from it. Side-chain parts run from the residue outwards. [ ]: non-standard residue; d: D form. The star is where a group is joined. DOTA = O=C(O)CN1CCN(CC(=O)O)CCN(CC(=O)*)CCN(CC(=O)O)CC1; NH(2-(imidazol-4-yl)ethyl) = c1ncc(CCN*)[nH]1; Suc = O=C(CCC(=O)[*:2])[*:1]
metric-name: tissue to tissue ratio at 3 h
Numbers only.

Fill blank: measured tissue to tissue ratio at 3 h of the compound NC(=O)[C@H](CCCCNC(=O)CNC(=O)CCC(=O)NCCc1cnc[nH]1)NC(=O)[C@@H](Cc1ccc(O)cc1)NC(=O)[C@H](CCCCNC(=O)CNC(=O)CCC(=O)NCCc1cnc[nH]1)NC(=O)[C@H](Cc1ccccc1)NC(=O)CN1CCN(CC(=O)O)CCN(CC(=O)O)CCN(CC(=O)O)CC1 [Ga-67-IMP 241, metal not drawn] ({DOTA}-FK([Gly-Suc-NH(2-(imidazol-4-yl)ethyl)])[dY]K([Gly-Suc-NH(2-(imidazol-4-yl)ethyl)])-NH2) is ____.
72.7

* * *

experiment: in vivo; design: species or system nude mice; settings: nude, mouse, total radioactivity, Tumor-to-tissue ratio Spleen
*1 amine or outer side, *2 acyl side, *3 side chain or, on linkers, in order; H or OH if unused. Where a SMILES comes first, the peptide text is derived from it. Side-chain parts run from the residue outwards. [ ]: non-standard residue; d: D form. The star is where a group is joined. DOTA = O=C(O)CN1CCN(CC(=O)O)CCN(CC(=O)*)CCN(CC(=O)O)CC1; NH(2-(imidazol-4-yl)ethyl) = c1ncc(CCN*)[nH]1; Suc = O=C(CCC(=O)[*:2])[*:1]
metric-name: tissue to tissue ratio at 2 h

Fill blank: measured tissue to tissue ratio at 2 h of the compound NC(=O)[C@H](CCCCNC(=O)CNC(=O)CCC(=O)NCCc1cnc[nH]1)NC(=O)[C@@H](Cc1ccc(O)cc1)NC(=O)[C@H](CCCCNC(=O)CNC(=O)CCC(=O)NCCc1cnc[nH]1)NC(=O)[C@H](Cc1ccccc1)NC(=O)CN1CCN(CC(=O)O)CCN(CC(=O)O)CCN(CC(=O)O)CC1 [Ga-67-IMP 241, metal not drawn] ({DOTA}-FK([Gly-Suc-NH(2-(imidazol-4-yl)ethyl)])[dY]K([Gly-Suc-NH(2-(imidazol-4-yl)ethyl)])-NH2) is ____.
26.6

* * *

Assay: in vivo
Design: species or system nude mice
Details: nude, mouse, total radioactivity, Tumor-to-tissue ratio Kidney
Description: The bispecific antibody I-125-hMN-14×679-F(ab′)2 (anti-CEA×anti-HSG, radiolabeled with iodine-125 as a tracer radionuclide) was injected into nude mice bearing GW39 human colon tumor xenografts. […] At specified times post-injection, five animals per time-point were sacrificed and tissues collected and counted for both I-125 and Ga-67 radioactivity, using dual energy windows for each respective radionuclide. […]
*1 amine or outer side, *2 acyl side, *3 side chain or, on linkers, in order; H or OH if unused. Where a SMILES comes first, the peptide text is derived from it. Side-chain parts run from the residue outwards. [ ]: non-standard residue; d: D form. The star is where a group is joined. DOTA = O=C(O)CN1CCN(CC(=O)O)CCN(CC(=O)*)CCN(CC(=O)O)CC1; NH(2-(imidazol-4-yl)ethyl) = c1ncc(CCN*)[nH]1; Suc = O=C(CCC(=O)[*:2])[*:1]
metric-name: tissue to tissue ratio at 3 h
Answers are plain numbers.

Fill blank: measured tissue to tissue ratio at 3 h of the compound NC(=O)[C@H](CCCCNC(=O)CNC(=O)CCC(=O)NCCc1cnc[nH]1)NC(=O)[C@@H](Cc1ccc(O)cc1)NC(=O)[C@H](CCCCNC(=O)CNC(=O)CCC(=O)NCCc1cnc[nH]1)NC(=O)[C@H](Cc1ccccc1)NC(=O)CN1CCN(CC(=O)O)CCN(CC(=O)O)CCN(CC(=O)O)CC1 [Ga-67-IMP 241, metal not drawn] ({DOTA}-FK([Gly-Suc-NH(2-(imidazol-4-yl)ethyl)])[dY]K([Gly-Suc-NH(2-(imidazol-4-yl)ethyl)])-NH2) is ____.
2.4
